Entries and their inhibition at 10 µM values follow.
- target: purified recombinant COX-2 (Homo sapiens)
- measurement description: COX-2 enzyme based assay
- Assay type: biochemical
- experimental parameters: 10 μM; NA = No activity; read-out: % Inhibition in rEnzyme Assay COX-2
- Protocol: COX-1 and COX-2 Enzyme Based Assay COX-1 and COX-2 enzyme based assays were carried out to check the inhibitory potential of the test compounds on the production of prostaglandin by purified recombinant COX-1/COX-2 enzyme (Proc. Nat. Acad. Sci. USA, 88, 2692-2696, 1991; J. Clin. Immunoassay 15, 116-120, 1992) In this assay, the potential of the test compound to inhibit the production of prostaglandin either by COX-1 or COX-2 from arachidonic acid (substrate) was measured. […]
experimental endpoint: inhibition at 10 µM (%)

| compound | experimental result |
| --- | --- |
| NS(=O)(=O)c1cccc(-c2c(-c3ccc(F)cc3)nc(C(F)(F)F)nc2N2CCN(c3ncccn3)CC2)c1 [Example 54] | 13.7 |
| NS(=O)(=O)c1cccc(-c2c(-c3ccccc3)nc(C(F)(F)F)nc2N2CCNCC2)c1 [Example 51] | 12.3 |
| NS(=O)(=O)c1cccc(-c2c(-c3ccccc3)nc(C(F)(F)F)nc2N2CCN(c3ccc(C(F)(F)F)cn3)CC2)c1 [Example 115] | 7.03 |
| CNS(=O)(=O)c1ccc(-c2c(N)nc(C(F)(F)F)nc2-c2ccc(S(C)(=O)=O)cc2)cc1 [Example 2] | 48.9 |

###

- target: purified recombinant COX-2 (Homo sapiens)
- measurement description: COX-2 enzyme based assay
- Type: biochemical
- experimental parameters: 10 μM; NA = No activity; read-out: % Inhibition in rEnzyme Assay COX-2
Entries and their inhibition at 10 µM values follow.

| entry smiles | result unit | inhibition at 10 µM |
| --- | --- | --- |
| NS(=O)(=O)c1cccc(-c2c(-c3ccccc3)nc(C(F)(F)F)nc2N2CCN(c3ncccn3)CC2)c1 | % | 0.66 |
| NS(=O)(=O)c1cccc(-c2c(-c3ccc(F)cc3)nc(C(F)(F)F)nc2N2CCN(c3ccccn3)CC2)c1 | % | 26.7 |
| NS(=O)(=O)c1cccc(-c2c(-c3ccccc3)nc(C(F)(F)F)nc2N2CCN(c3ccccn3)CC2)c1 | % | 2.62 |

###

- Tested on: HCT-116
- measurement description: Anti-cancer screen (MTT), HCT-116
- Assay type: cell-based
- experimental parameters: Homo sapiens, HCT-116, 48 hours

| entry smiles | GI50 |
| --- | --- |
| CS(=O)(=O)c1ccc(-c2nc(C(F)(F)F)nc(N3CCN(C(=O)c4ccc([N+](=O)[O-])o4)CC3)c2-c2ccccc2)cc1 | 6 µM |
| CNS(=O)(=O)c1ccc(-c2c(N)nc(C(F)(F)F)nc2-c2ccc(S(C)(=O)=O)cc2)cc1 | 2.5 µM |
| NS(=O)(=O)c1ccc(-c2nc(C(F)(F)F)nc(N3CCN(C(=O)c4ccc([N+](=O)[O-])o4)CC3)c2-c2ccc(F)cc2)cc1 | 3.5 µM |
| CNS(=O)(=O)c1ccc(-c2c(Cl)nc(C(F)(F)F)nc2-c2ccc(S(C)(=O)=O)cc2)cc1 | 2 µM |
| NS(=O)(=O)c1ccc(-c2c(-c3ccc(F)cc3)nc(C(F)(F)F)nc2N2CCN(C(=O)c3ccc([N+](=O)[O-])o3)CC2)cc1 | 7 µM |
| NS(=O)(=O)c1cccc(-c2c(-c3ccc(F)cc3)nc(C(F)(F)F)nc2N2CCN(c3cccc(C(F)(F)F)c3)CC2)c1 | 9.2 µM |
| O=C(c1ccc([N+](=O)[O-])o1)N1CCN(c2nc(C(F)(F)F)nc(-c3ccncc3)c2-c2ccc(F)cc2)CC1 | 26 µM |
| NS(=O)(=O)c1cccc(-c2c(-c3ccccc3)nc(C(F)(F)F)nc2N2CCNCC2)c1 | 30 µM |
| CSc1nn(-c2nc(C(F)(F)F)nc(-c3ccncc3)c2-c2ccc(F)cc2)c(N)c1C(=O)Nc1ccc(C)c(C)c1 | 20 µM |

###

Entries and their melting point values follow.

| entry smiles | melting point |
| --- | --- |
| CS(=O)(=O)c1ccc(-c2nc(C(F)(F)F)nc(OS(=O)(=O)c3cccc4ccccc34)c2-c2ccccc2)cc1 | 204 to 206 °C |
| CS(=O)(=O)c1ccc(-c2nc(C(F)(F)F)nc(Cl)c2-c2ccc(S(=O)(=O)Cl)cc2)cc1 | 207 to 210 °C |
| O=C(NNc1nc(C(F)(F)F)nc(-c2ccncc2)c1-c1ccc(F)cc1)C(F)(F)F | 240 to 242 °C |
| FC(F)(F)c1nc(-c2ccccc2)c(-c2ccccc2)c(N2CCN(c3ccccn3)CC2)n1 | 165 to 167 °C |
| CNS(=O)(=O)c1ccc(-c2c(Cl)nc(C(F)(F)F)nc2-c2ccc(S(C)(=O)=O)cc2)cc1 | 226 to 230 °C |
| CC(=O)NS(=O)(=O)c1ccc(-c2c(Cl)nc(C(F)(F)F)nc2-c2ccc(S(C)(=O)=O)cc2)cc1 | 230 to 235 °C |
| CS(=O)(=O)c1ccc(-c2nc(C(F)(F)F)nc(NN)c2-c2ccc(S(=O)(=O)NN)cc2)cc1 | 203 to 206 °C |

###

- target: purified recombinant COX-2 (Homo sapiens)
- Sequence (P35354 18-604): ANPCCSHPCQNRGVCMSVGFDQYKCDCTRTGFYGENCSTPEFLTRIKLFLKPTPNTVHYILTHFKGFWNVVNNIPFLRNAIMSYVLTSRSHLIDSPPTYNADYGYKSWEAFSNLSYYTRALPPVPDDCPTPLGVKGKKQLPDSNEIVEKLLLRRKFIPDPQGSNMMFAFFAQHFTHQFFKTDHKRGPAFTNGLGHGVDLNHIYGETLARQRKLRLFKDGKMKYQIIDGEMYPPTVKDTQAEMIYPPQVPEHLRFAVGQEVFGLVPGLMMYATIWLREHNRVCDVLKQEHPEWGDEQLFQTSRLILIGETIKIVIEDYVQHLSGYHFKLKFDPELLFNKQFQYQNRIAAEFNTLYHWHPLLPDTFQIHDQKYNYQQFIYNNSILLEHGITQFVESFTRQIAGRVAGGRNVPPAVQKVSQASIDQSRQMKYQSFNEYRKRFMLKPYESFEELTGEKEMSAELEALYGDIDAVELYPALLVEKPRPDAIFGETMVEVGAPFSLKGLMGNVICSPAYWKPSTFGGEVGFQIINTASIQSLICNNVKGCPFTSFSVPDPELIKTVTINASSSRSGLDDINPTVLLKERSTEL
- measurement description: COX-2 enzyme based assay
- Type: biochemical
- experimental parameters: 1 μM; NA = No activity; read-out: % Inhibition in rEnzyme Assay COX-2

| molecule | target | inhibition at 1 µM, % |
| --- | --- | --- |
| NS(=O)(=O)c1cccc(-c2c(-c3ccc(F)cc3)nc(C(F)(F)F)nc2N2CCN(c3ccccn3)CC2)c1 [Example 53] | purified recombinant COX-2 (Homo sapiens) | 20 |
| CNS(=O)(=O)c1ccc(-c2c(N)nc(C(F)(F)F)nc2-c2ccc(S(C)(=O)=O)cc2)cc1 [Example 2] | purified recombinant COX-2 (Homo sapiens) | 17.3 |
| NS(=O)(=O)c1cccc(-c2c(-c3ccccc3)nc(C(F)(F)F)nc2N2CCN(c3ncccn3)CC2)c1 [Example 57] | purified recombinant COX-2 (Homo sapiens) | 8.29 |
| NS(=O)(=O)c1cccc(-c2c(-c3ccccc3)nc(C(F)(F)F)nc2N2CCN(c3ccccn3)CC2)c1 [Example 58] | purified recombinant COX-2 (Homo sapiens) | 11.2 |
